Assay: wild-type TIM10 yeast growth inhibition – luminescence, uHTS, counter-screen for tim10-1 yeast inhibitor project, primary screen (AID 463195);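 further: wild-type TIM10 isogenic control strain grown at permissive 25 °C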
Settings: S. cerevisiae TIM10 strain growth, BacTiter-Glo luminescence, 24 h; at 10 µM
About 4,600 (1.4%) of roughly 330,000 compounds were called active.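 How the source made its calls: active means inhibition of 40% or more at the single tested concentration; inactive means the rest.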 The sample as a whole holds a higher share of actives than the screen did.
Your answer must be one of the following: y (active), n (inactive)

The following compounds have reported results that may help.
1. O=C(Nc1cccc(CCc2ccccn2)c1)c1ccc(Cl)cc1; n
2. CSc1ccccc1NC(=O)COC(=O)CCCOc1ccc(C)cc1; n

Q: // param item: Cc1cccc(OCC(=O)Nc2ccc(NC(=O)c3ccco3)c(C)c2)c1 ; yields the recorded call
A: n

Q: Now try COc1cccc(N(C(=O)c2ccn[nH]2)C2(C(=O)Nc3c(C)cccc3C)CCCCC2)c1 .
A: n

Q: Now try COc1ccc(N2C(=O)CC(SC(C)C)C2=O)cc1 (configuration not stated) .
A: n

Q: Now try Cc1cc(NC(=O)CSc2ncc(C(F)(F)F)cc2Cl)no1 .
A: n

---

Experiment: wild-type TIM10 yeast growth inhibition – luminescence, uHTS, counter-screen for tim10-1 yeast inhibitor project, primary screen (AID 463195);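 further: wild-type TIM10 isogenic control strain grown at permissive 25 °C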
Settings: S. cerevisiae TIM10 strain growth, BacTiter-Glo luminescence, 24 h; at 10 µM
The campaign covered roughly 330,000 compounds. About 4,600 (1.4%) were called active.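 How the source made its calls: active means inhibition of 40% or more at the single tested concentration; inactive means the rest.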 The entries come from a sample that favours actives as a whole.
Your answer must be one of the following: active, inactive

The following molecules have reported results that may help.
1. O=Cc1c(Nc2ccccc2Cl)nc2ccccn2c1=O; inactive
2. O=C(N/N=C/c1cccc(OCc2ccccc2)c1)c1ccc(Br)o1; inactive
3. CN(CC(=O)Nc1ccc(OC(F)F)cc1)S(=O)(=O)/C=C/c1ccccc1; inactive
4. Cc1ccc(N2C(=O)C3C4C=CC(CC4)C3C2=O)cc1Br (configuration not stated); inactive
5. COc1ccc(CS(=O)/C(Cl)=C(/Cl)C(=O)Nc2ccc(OC)nc2)cc1 (configuration not stated); active

Q: // param item: O=Cc1c(N2CCN(c3cccc(Cl)c3)CC2)nc2ccccn2c1=O ; yields the recorded call
A: active

Q: Now try CC(C)N(Cc1ccccc1)C(=S)Nc1ccc(OC(F)F)cc1 .
A: active

Q: Now try CC(=O)Nc1ccc(N2C(=O)C3C4C=CC(CC4)C3C2=O)cc1 (configuration not stated) .
A: inactive

Q: Now try CCN(CC(=O)Nc1ccc(OC)cc1)C(=O)CSCc1ccc(C)cc1 .
A: inactive

Q: Now try O=C(Nc1ccc2c(c1)OCCO2)C1CCCN(c2ncccn2)C1 (configuration not stated) .
A: inactive

Q: Now try Cc1ccc(N2C(=O)C3C4C=CC(CC4)C3C2=O)cc1Cl (configuration not stated) .
A: active

Q: Now try C=CC1C(OC2OC(CO)C(O)C(O)C2O)OC=C(C(=O)OC)C1CC1CC(=O)CC(CC(=O)CCc2ccc(O)cc2)O1 (configuration not stated) .
A: inactive

---

Assay: wild-type TIM10 yeast growth inhibition – luminescence, uHTS, counter-screen for tim10-1 yeast inhibitor project, primary screen (AID 463195);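 further: wild-type TIM10 isogenic control strain grown at permissive 25 °C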
Settings: S. cerevisiae TIM10 strain growth, BacTiter-Glo luminescence, 24 h; at 10 µM; active compounds read high
Hit rate of the full screen: of about 330,000 compounds, about 4,600 (1.4%) were called active. Shown is part of a subset that was picked to be rich in actives.
Please enter Yes where inhibition is greater than or equal to 20%, and No where it is lower.

The following compounds have reported results that may help.
1. CCCS(=O)(=O)N1CCN=C1SCc1cccc(F)c1; No
2. CCOc1cc(-c2cc(-c3ccc(OC)cc3)nc(N)c2C#N)ccc1O; Yes
3. Cn1cnnc1SCC(=O)Nc1ccc(N2CCOCC2)cc1; No
4. COc1ccc2c(c1)c(C(=O)N/N=C/c1cccs1)c(C)n2C; Yes
5. CC1=NN(C(N)=S)C(=O)C1N=Nc1cc(Cl)ccc1Cl (stereo not given); Yes
6. Cc1cccc(-n2c(SCC(N)=O)nc3c(c2=O)C2(CCCCC2)Cc2ccccc2-3)c1; No

Let's switch to this compound now.
Q: Say whether CCOC(=O)c1ccc(N2C(=O)CC(N3CC(C)OC(C)C3)C2=O)cc1 (stereo not given) shows inhibition of 20% or more.
A: No
